The values you see were collected from the supplement of paper PMC6555819.

Tested on: RARg homodimer (NR concentration 270 nM)
measurement_protocol: PBM binding z-score (relative to random genomic background probes); higher = stronger binding; sequences stand for … in GC…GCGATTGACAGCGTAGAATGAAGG
Please go through the items and note down their PBM binding z-score.
One number for each entry.

// worked examples, PBM binding z-score included
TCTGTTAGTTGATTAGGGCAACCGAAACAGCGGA
0.978
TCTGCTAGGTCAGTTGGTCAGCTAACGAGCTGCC
3.5
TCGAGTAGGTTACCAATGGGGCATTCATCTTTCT
0.586

Please look at the items below and tell me PBM binding z-score for each one, in order.
1. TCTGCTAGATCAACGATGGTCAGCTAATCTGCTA
2. ATATGTAGGTTACATCCGGGTCATTGAGGCTATG
3. TGTACAGGGTCAAAGGCCAGAGTACGAATGTCGA

Given back:
1: -0.512; 2: 2.07; 3: 4.74

Dear colleague, could you please provide PBM binding z-score for the sequences listed below?
1. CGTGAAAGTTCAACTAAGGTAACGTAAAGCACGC
2. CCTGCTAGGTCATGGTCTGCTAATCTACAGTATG
3. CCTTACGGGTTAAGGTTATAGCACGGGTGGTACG

Given back:
1: 6.12; 2: 4.43; 3: 0.999

For every listed record, write down its PBM binding z-score.
1. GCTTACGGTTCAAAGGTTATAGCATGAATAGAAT
2. TCTTGGAGATCAAAGGTTAAGAAAGCCGAAGCCT

Given back:
1: 1.39; 2: 0.819

----------
Tested on: RARg:RXRa (NR concentration 270 nM, RXRa partner concentration 90 nM)
measurement_protocol: PBM binding z-score (relative to random genomic background probes); higher = stronger binding; sequences stand for … in GC…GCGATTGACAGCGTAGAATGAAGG
Task for the reader: assign each of the following sequences its reported PBM binding z-score.

These solved cases illustrate the format of a correct answer.
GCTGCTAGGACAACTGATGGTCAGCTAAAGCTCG
-0.166
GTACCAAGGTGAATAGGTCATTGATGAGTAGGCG
4.79
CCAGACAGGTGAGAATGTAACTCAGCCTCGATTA
0.273

I have 7 sequences here; please give me PBM binding z-score for each one.
1. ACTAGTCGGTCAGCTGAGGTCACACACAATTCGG
2. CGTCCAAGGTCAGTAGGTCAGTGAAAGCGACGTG
3. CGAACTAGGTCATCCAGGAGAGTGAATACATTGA
4. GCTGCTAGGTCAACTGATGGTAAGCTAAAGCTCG
5. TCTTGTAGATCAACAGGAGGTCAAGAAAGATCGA
6. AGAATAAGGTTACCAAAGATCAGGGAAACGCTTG
7. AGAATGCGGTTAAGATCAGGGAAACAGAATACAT

Given back:
1. 4.99
2. 5.95
3. 3.87
4. 4.25
5. 4.04
6. 2.06
7. 0.0483

Record PBM binding z-score for all entries; do not skip any.
1. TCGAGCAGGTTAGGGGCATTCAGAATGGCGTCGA
2. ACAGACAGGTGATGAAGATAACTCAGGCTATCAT

Given back:
[0.286, 0.0914]

Quick batch: PBM binding z-score for everything below.
1. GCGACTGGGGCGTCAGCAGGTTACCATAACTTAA
2. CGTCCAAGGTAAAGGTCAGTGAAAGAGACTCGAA
3. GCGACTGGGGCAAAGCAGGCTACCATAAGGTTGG

Given back:
0.162
4.58
0.143

----------
System: PXR:RXRa (NR concentration 270 nM, RXRa partner concentration 90 nM)
measurement_protocol: PBM binding z-score (relative to random genomic background probes); higher = stronger binding; sequences stand for … in GC…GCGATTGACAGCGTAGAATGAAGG
Response key: criterion met means PBM binding z-score >= 2; criterion not met means PBM binding z-score < 2.

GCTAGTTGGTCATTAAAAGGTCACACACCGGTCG
criterion met
CCAGACAGGTAAGAAGGTAACTCAGCCTCGATTA
criterion not met
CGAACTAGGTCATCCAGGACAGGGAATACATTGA
criterion not met
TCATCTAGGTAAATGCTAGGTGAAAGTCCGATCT
criterion not met
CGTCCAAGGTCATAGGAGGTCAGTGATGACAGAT
criterion met
ACTAGCAGGCCAAGCGTCACTCAAGATTAGTCCG
criterion not met
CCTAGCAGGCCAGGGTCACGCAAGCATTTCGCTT
criterion met
ATCGAAAGGTCGACGAGGTGAGTATACACCGTTT
criterion met
CCGAGTAGGATATGGGGCATTCAGGCAACGGTGA
criterion not met
CTCGACAGGTCGGTTGAGGTGAGTATACGGATAA
criterion not met

# input for lookup
Asked: Could you verify whether the entry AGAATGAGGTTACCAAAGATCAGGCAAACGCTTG shows PBM binding z-score of no less than 2?
Given back: criterion not met

----------
Tested on: VDR:RXRa (NR concentration 270 nM, RXRa partner concentration 90 nM)
measurement_protocol: PBM binding z-score (relative to random genomic background probes); higher = stronger binding; sequences stand for … in GC…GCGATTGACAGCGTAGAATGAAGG
Returns MET if the recorded PBM binding z-score is greater than or equal to 2, and NOT MET otherwise.

Solved cases below.
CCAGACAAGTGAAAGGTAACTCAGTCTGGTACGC
NOT MET
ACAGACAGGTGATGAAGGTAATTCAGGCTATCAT
NOT MET
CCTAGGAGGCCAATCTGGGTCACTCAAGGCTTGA
NOT MET
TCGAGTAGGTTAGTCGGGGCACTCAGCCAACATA
NOT MET

Asked: Test whether the sequence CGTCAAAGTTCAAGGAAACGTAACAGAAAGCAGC records PBM binding z-score of 2 or higher.
Given back: MET

Asked: Is reported PBM binding z-score greater than or equal to 2 here: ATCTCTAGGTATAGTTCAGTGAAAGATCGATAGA
Given back: NOT MET

Asked: Is PBM binding z-score for CCAGACAGGCGAGAAGGTAACTCAGCCTCGATTA at or above 2?
Given back: NOT MET

----------
System: RARg:RXRa (NR concentration 270 nM, RXRa partner concentration 90 nM)
measurement_protocol: PBM binding z-score (relative to random genomic background probes); higher = stronger binding; sequences stand for … in GC…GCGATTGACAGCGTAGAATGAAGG
experimental_readout: PBM binding z-score

Provide each entry's PBM binding z-score from the list below.
1. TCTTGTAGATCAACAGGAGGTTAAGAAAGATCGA
2. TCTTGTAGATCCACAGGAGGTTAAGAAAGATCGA
3. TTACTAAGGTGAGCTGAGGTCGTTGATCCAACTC
4. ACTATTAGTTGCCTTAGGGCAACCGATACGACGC

Given back:
1: 0.934; 2: 0.509; 3: 1.39; 4: 0.429

----------
For each record, write down the corresponding PBM binding z-score.
Tested on: FXR:RXRa (NR concentration 270 nM, RXRa partner concentration 90 nM)
measurement_protocol: PBM binding z-score (relative to random genomic background probes); higher = stronger binding; sequences stand for … in GC…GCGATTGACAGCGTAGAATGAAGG
Numbers only.

# per-item lookup of PBM binding z-score; items listed below
1. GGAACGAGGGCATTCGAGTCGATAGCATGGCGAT
2. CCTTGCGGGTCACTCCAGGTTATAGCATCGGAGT
3. CCTACTGGGACATCAGGTCATTGATATCAACGTT

Given back:
1. 0.976
2. 4.22
3. 1.42

----------
Test system: PXR homodimer (NR concentration 270 nM)
measurement_protocol: PBM binding z-score (relative to random genomic background probes); higher = stronger binding; sequences stand for … in GC…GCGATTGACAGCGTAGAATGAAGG
Use 1 as the dividing line for PBM binding z-score, with the line itself on the Y side and lower values as N.

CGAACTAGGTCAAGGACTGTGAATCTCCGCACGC
N
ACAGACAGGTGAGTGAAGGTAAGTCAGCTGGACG
N
ATCGAAAGGTCGTGAGATGAGTATACAGAAAGGC
N
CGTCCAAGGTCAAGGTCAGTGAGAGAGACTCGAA
Y
TCTAGTTGGTCAAAGGTCACAAACTCGAAATGCG
Y
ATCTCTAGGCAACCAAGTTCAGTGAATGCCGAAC
Y
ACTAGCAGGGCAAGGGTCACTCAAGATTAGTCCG
N
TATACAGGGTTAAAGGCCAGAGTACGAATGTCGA
N
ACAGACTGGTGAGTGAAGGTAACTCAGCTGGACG
N
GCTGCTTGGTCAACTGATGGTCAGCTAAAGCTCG
N

Asked: Exam item: decide whether the reported PBM binding z-score for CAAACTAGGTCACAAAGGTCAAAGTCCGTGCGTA is at least 1.
Given back: Y

Asked: Hi, just wondering whether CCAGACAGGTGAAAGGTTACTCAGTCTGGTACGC shows PBM binding z-score of 1 or higher.
Given back: N

Asked: Say whether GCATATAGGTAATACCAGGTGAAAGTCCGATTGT shows PBM binding z-score of 1 or more.
Given back: N

Asked: Is PBM binding z-score for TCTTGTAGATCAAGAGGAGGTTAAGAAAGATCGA at or above 1?
Given back: N

Asked: Does the sequence GGATATAGGTAATACAAGGTGAAAGTCCGATTGT have recorded PBM binding z-score that is 1 or more?
Given back: N

Asked: Answer whether PBM binding z-score of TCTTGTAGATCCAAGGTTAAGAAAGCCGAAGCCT is greater than or equal to 1.
Given back: N
